- TARGET SYSTEM: T1, purified ALK protein (BLitz, Table 20) (Homo sapiens (Human), UniProt Q9UM73 19-1038, limits assumed)
- T1 construct: also called purified ALK proteins
- T1 sequence (Q9UM73 19-1038 limits assumed): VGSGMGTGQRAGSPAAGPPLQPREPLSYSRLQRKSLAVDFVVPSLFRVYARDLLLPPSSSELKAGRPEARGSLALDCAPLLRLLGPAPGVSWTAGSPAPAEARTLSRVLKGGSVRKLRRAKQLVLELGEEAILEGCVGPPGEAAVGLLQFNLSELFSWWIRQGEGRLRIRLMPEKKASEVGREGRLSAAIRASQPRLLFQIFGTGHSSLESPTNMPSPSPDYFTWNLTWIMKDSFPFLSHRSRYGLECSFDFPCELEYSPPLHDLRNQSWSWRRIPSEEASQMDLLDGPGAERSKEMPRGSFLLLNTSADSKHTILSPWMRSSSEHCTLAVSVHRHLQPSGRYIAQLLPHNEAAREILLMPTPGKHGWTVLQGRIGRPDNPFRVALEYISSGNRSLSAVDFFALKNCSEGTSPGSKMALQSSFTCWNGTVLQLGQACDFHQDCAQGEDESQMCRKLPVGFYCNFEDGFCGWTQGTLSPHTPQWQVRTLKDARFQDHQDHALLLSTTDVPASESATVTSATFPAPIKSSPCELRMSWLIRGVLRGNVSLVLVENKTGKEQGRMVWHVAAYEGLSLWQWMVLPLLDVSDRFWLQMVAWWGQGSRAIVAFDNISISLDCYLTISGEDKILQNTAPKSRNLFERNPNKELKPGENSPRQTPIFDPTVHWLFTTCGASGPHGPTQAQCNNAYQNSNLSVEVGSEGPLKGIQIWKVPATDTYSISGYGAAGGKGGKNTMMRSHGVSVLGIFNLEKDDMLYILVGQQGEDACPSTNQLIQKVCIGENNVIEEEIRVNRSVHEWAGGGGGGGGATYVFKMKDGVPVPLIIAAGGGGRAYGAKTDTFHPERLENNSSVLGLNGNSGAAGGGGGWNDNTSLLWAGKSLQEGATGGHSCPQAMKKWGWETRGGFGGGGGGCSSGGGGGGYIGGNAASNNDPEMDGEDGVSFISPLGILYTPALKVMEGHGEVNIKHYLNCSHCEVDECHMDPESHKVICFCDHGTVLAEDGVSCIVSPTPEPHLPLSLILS
- PROTOCOL: BLI (BLitz), mAb on Protein A tip, purified ALK in solution

# BINDER, Kd, nM
data = [
    ("Ab443 (antibody, V domains shown, humanized) VH: QVQLVQSGAEVAKPGSSVKLSCKASGYTFTSYWMHWVKQAPGQGLEWIGYIKPSSGYTKYNQKFKDKATLTADKSTSTAYMELSSLRSEDTAVYYCARDYYGSSSWFAYWGQGTLVTVSS VL: EIVMTQSQATMSTSVGERATLSCKASQNVGTNVAWYQQKPGQSPKALIYGASTRATGVPARFSGSGSGTDFTLTISSVEPEDFAVYYCQQYNSYPYMYTFGQGTKLEIK", 145),
    ("Ab398 (antibody, V domains shown, humanized) VH: EVQLVQSGAEVKKPGSSVKLSCKASGYTFSSYWMHWVKQAPGQGLEWIGYIKPSSGYTKYAQKFQGRVTLTADKSTSTAYMELSSLRSEDTAVYYCARDYYGSSSWFAYWGQGTLVTVSS VL: EIVMTQSPATLSTSPGERATLSCKASQNVGTNVAWYQQKPGQAPRALIYSASYRYSGVPARFSGSGSGTDFTLTISSVEPEDFAVYYCQQYNSYPYMYTFGQGTKLEIK", 221),
    ("Ab381 (antibody, V domains shown, humanized) VH: EVQLVQSGAEVAKPGASVKLSCKASGYTFTSYWMHWVRQAPGQGLEWIGYIKPSSGYTKYNQKFKDKATLTADKSTSTAYMELRSLRSDDTAVYYCARDYYGSSSWFAYWGQGTLVTVSS VL: EIVMTQSPAFMSVTVGEKVTITCKASQNVGTNVAWYQQKPDQSPKALIYSASYRYSGVPSRFSGSGSGTDFTLTISSLEAEDAATYYCQQYNSYPYMYTFGQGTKLEIK", 180),
]
